target: hLDHA (Homo sapiens, UniProt P00338); construct: purchased Abcam; test: hLDHA enzymatic assay (kinetic fluorometric, pyruvate substrate, NADH co-factor); assay type: biochemical; settings: hLDHA, 1 mM pyruvate, 151 µM β-NADH, compounds 0.048–100 µM, n = 3
PARAMETER: IC50 (µM)

A selection of reference data follows.
MOLECULE: COc1ccc2[nH]c(=O)c(CSc3ccccc3Nc3nccc(-c4ccc5c(c4)OCO5)n3)cc2c1 [Compound 27c]
PARAMETER: IC50
READOUT VALUE: 60
//
MOLECULE: O=c1[nH]c2ccc(Cl)cc2cc1CSc1ccccc1Nc1nccc(-c2ccc(C(F)(F)F)cc2)n1 [Compound 25b]
PARAMETER: IC50
READOUT VALUE: 42.3
//
MOLECULE: COc1ccc2[nH]c(=O)c(CSc3ccccc3Nc3nccc(-c4ccc(C(F)(F)F)cc4)n3)cc2c1 [Compound 25c]
PARAMETER: IC50
READOUT VALUE: 71.8

1. O=c1[nH]c2ccccc2cc1CSc1cccc(Nc2nccc(-c3ccc4ccccc4c3)n2)c1 [Compound 35a]
2. COc1ccc2[nH]c(=O)c(CSc3cccc(Nc4nccc(-c5ccc6ccccc6c5)n4)c3)cc2c1 [Compound 35c]
3. O=c1[nH]c2ccc(Cl)cc2cc1CSc1ccccc1Nc1nccc(-c2ccc(Cl)cc2)n1 [Compound 24b]
Order by IC50, ascending. Put the labels in the requested order and write them down. 1, 3, 2
(1: 19.6 µM, 3: 34.8 µM, 2: 50.1 µM)

a. O=c1[nH]c2ccccc2cc1CSc1ccccc1Nc1nccc(-c2ccc3ccccc3c2)n1 [Compound 26a]
b. O=c1[nH]c2ccccc2cc1CSc1ccc(Nc2nccc(-c3ccc4ccccc4c3)n2)cc1 [Compound 30a]
Of a versus b , which is the one with smaller reported IC50? Please identify the chosen entry by its label. a
